Provenance of the data: paper doi:10.1101/2021.10.07.463234v2

target: SARS-CoV-2 Mac1 (Severe acute respiratory syndrome coronavirus 2); experiment: biochemical; conditions: read-out: %inhibition
Where a name gives a salt, the structure may show the parent alone.
Each entry gets Not satisfied if its inhibition at 100 µM stays under 5%, and Satisfied if its inhibition at 100 µM is 5% or above.

## Task Entry CC(C)(C(=O)c1cccnc1)c1cccnc1 : is its inhibition at 100 µM no less than 5%?
## Result Satisfied

## Task Entry CN1C(C)(C)CCCC1(C)C : is its inhibition at 100 µM no less than 5%?
## Result Satisfied

## Task Entry CN[C@@H]1[C@H](O[C@H]2[C@H](O[C@H]3[C@H](O)[C@@H](O)[C@H](N=C(N)N)[C@@H](O)[C@@H]3N=C(N)N)O[C@@H](C)[C@]2(O)CO)O[C@@H](CO)[C@H](O)[C@H]1O [Dihydrostreptomycin sulfate] : is its inhibition at 100 µM no less than 5%?
## Result Satisfied

## Task Entry Clc1ccc(C(Cn2ccnc2)OCc2ccc(Sc3ccccc3)cc2)c(Cl)c1 (stereo not drawn) [Fenticonazole Nitrate] : is its inhibition at 100 µM no less than 5%?
## Result Not satisfied

## Task Entry C1CNCCN1 : is its inhibition at 100 µM no less than 5%?
## Result Satisfied

## Task Entry CS(=O)(=O)c1ccc(C2=C(c3ccccc3)C(=O)OC2)cc1 : is its inhibition at 100 µM no less than 5%?
## Result Satisfied

----------
target: UniProtKB P0DTD1; test: biochemical; conditions: read-out: %inhibition
Counter-ions that a name gives are not always drawn.
REPORTED METRIC: inhibition at 100 µM (%)
Express your answer in %, writing the number without its unit.

## Task // inhibition at 100 µM lookup, key: CCN(CC)CCNC(=O)c1cc(Cl)c(N)cc1OC [Metoclopramide HCl]
## Result 0

## Task // inhibition at 100 µM lookup, key: C[C@H]1CNCCCN1S(=O)(=O)c1cccc2cncc(F)c12
## Result 23.9

## Task // inhibition at 100 µM lookup, key: CC(=O)O[C@]1(C(C)=O)CC[C@H]2[C@@H]3C=C(C)C4=CC(=O)CC[C@]4(C)[C@H]3CC[C@@]21C [Megestrol Acetate]
## Result 23.5

## Task // inhibition at 100 µM lookup, key: CC(C)N1CCN(c2ccc(OC[C@H]3CO[C@](Cn4cncn4)(c4ccc(Cl)cc4Cl)O3)cc2)CC1 (racemic)
## Result 4.88

## Task // inhibition at 100 µM lookup, key: O=C(O)[C@H](O)[C@@H](O)[C@H](O)[C@H](O)CO [Calcium gluconate]
## Result 0

## Task // inhibition at 100 µM lookup, key: NC(=O)N/N=C/c1ccc([N+](=O)[O-])o1
## Result 0

## Task // inhibition at 100 µM lookup, key: O=C1OC(CN2CCOCC2)CN1/N=C/c1ccc([N+](=O)[O-])o1 (centres unmarked) [Furaltadone HCl]
## Result 15.8

## Task // inhibition at 100 µM lookup, key: CCCC1O[C@@H]2C[C@H]3[C@@H]4CCC5=CC(=O)C=C[C@]5(C)[C@H]4[C@@H](O)C[C@]3(C)[C@]2(C(=O)CO)O1 (some centres unmarked) [Budesonide]
## Result 12.3

## Task // inhibition at 100 µM lookup, key: NCC(O)c1ccc(O)cc1 (racemic) [(+,-)-Octopamine HCl]
## Result 0

## Task // inhibition at 100 µM lookup, key: NC(=O)[C@@H]1CCCN1C(=O)[C@H](Cc1c[nH]cn1)NC(=O)[C@@H]1CCC(=O)N1
## Result 0

## Task // inhibition at 100 µM lookup, key: CO[C@H]1/C=C/O[C@@]2(C)Oc3c(C)c(O)c4c(O)c(c(/C=N/N5CCN(C6CCCC6)CC5)c(O)c4c3C2=O)NC(=O)/C(C)=C\C=C\[C@H](C)[C@H](O)[C@@H](C)[C@@H](O)[C@@H](C)[C@H](OC(C)=O)[C@@H]1C
## Result 26.7

## Task // inhibition at 100 µM lookup, key: O=C1NC(=O)[C@@H](c2cn3c4c(cccc24)CCC3)[C@@H]1c1c[nH]c2ccccc12 [Tivantinib (ARQ 197)]
## Result 1.02

## Task // inhibition at 100 µM lookup, key: CC1=C(C(=O)OCCN(Cc2ccccc2)c2ccccc2)C(c2cccc([N+](=O)[O-])c2)C(P2(=O)OCC(C)(C)CO2)=C(C)N1 (centres unmarked)
## Result 14.5

## Task // inhibition at 100 µM lookup, key: C[C@H]1O[C@@H](n2cc(F)c(=O)[nH]c2=O)[C@H](O)[C@@H]1O
## Result 0
